# assay-system: Histone acetyltransferase p300 (Homo sapiens)
# protocol-text: Inhibition of human immunoprecipitated histone acetyltransferase p300 in U937 cell nuclear extracts assessed as remaining enzyme activity at 50 uM
# Type: cell-free
# conditions: U-937
reported-metric: Activity (%)

INSERT INTO measurements (chemical_structure, reading) VALUES
  ('CCCCCc1nc2ccccc2c(O)c1C(=O)OCC', 47.7),
  ('CCCCCCCCCCCCCCCc1nc2ccccc2c(O)c1C(=O)O', 46.9),
  ('CCCCCc1nc2ccccc2c(O)c1C(=O)O', 82),
  ('CCOC(=O)c1c(C)nc2ccccc2c1O', 16.4),
  ('C=C1C(=O)O[C@H](CCC)[C@H]1C(=O)O', 58.6);

1: C=CC/C=C\C/C=C\CCCCCCCc1cccc(O)c1C(=O)O
2: Cc1nc2ccccc2c(O)c1C(=O)O
// returns 1 or 2 , whichever has the lower Activity Mark your answer with the label of the selected entry.
2
(2: 11.4%, 1: 53.1%)
